# Test system: BT-549 breast
# EXPERIMENTAL DETAILS: NCI tumour cell line growth inhibition, 48 h
MEASUREMENT KIND: TGI (µM)
# unit: µM | format: bare number

Past entries and their recorded results:
COMPOUND	MEASUREMENT KIND	RECORDED NUMBER
COc1cc(F)c(F)c(F)c1C(=O)c1cnc(NC2CCN(S(C)(=O)=O)CC2)nc1N	TGI	8.35
CC(C)C1CC(CO)(CNc2nc(N)nc(Cl)c2C=O)C1 (stereo not drawn)	TGI	52.2
C=C(CN1CCc2ccccc2C1)c1ccc(C(=O)Nc2cccc(N)c2)cc1	TGI	34.4

q: For "Cc1ccc(CNc2ccc(Cl)cc2NCc2ccc(C)c(O)c2)cc1O" , write its TGI.
a: 14.1

q: For "CN1CN(c2ccccc2)C2(CCN(CCCN(C)c3ccc(F)cc3)CC2)C1=O" , write its TGI.
a: 31.1

q: For "NC1=Nc2cc(OCCCCN3Cc4ccccc4C3)c(OCC3CC3)cc2C12CCCC2" , write its TGI.
a: 3.33

q: For "CN(C)CCCn1c2c(c3ccc(N4CCNCC4)cc3c1=O)C(=O)c1ccccc1-2" , write its TGI.
a: 2.77

q: For "O=[N+]([O-])c1ccc(-c2ccc([C@H]3CC(c4cc(F)c(Cl)cc4Cl)=NN3)o2)cc1" , write its TGI.
a: 90.9

q: For "O=c1[nH]c2c(ccc3cnccc32)c2c1CCC2" , write its TGI.
a: 0.532

q: For O=C1C(CN2CCCC2)CCC1CN1CCCC1 (stereo not drawn) , write its TGI.
a: 31.8
